System: Staphylococcus epidermidis
READOUT NAME: MIC (µM)
The figure you give is taken to be in µM; do not add the unit.

GIVEN SMILES | TARGET | UNITS SYMBOL | MIC
CC[C@H](C)[C@H](NC(=O)[C@H](Cc1c[nH]c2ccccc12)NC(=O)[C@H](CCCCN)NC(=O)[C@H](CCCCN)NC(=O)[C@H](CC(C)C)NC(=O)[C@H](Cc1c[nH]c2ccccc12)NC(=O)[C@H](CCCCN)NC(=O)[C@@H](N)Cc1c[nH]c2ccccc12)C(=O)N[C@@H](CCCCN)C(=O)O | Staphylococcus epidermidis | µM | 0.458
CC[C@H](C)[C@H](NC(=O)[C@@H]1CCCN1C(=O)[C@H](CC(C)C)NC(=O)[C@H](CC(C)C)NC(=O)[C@H](Cc1ccc(O)cc1)NC(=O)[C@H](CCCCN)NC(=O)[C@@H](N)CCCCN)C(=O)N[C@H](C(=O)NCC(=O)N[C@@H](CC(N)=O)C(=O)N[C@@H](CC(C)C)C(=O)N[C@@H](CC(C)C)C(=O)N[C@@H](CCCCN)C(=O)N[C@@H](CO)C(=O)N[C@@H](CC(C)C)C(=O)N[C@@H](CC(C)C)C(N)=O)C(C)C | Staphylococcus epidermidis | µM | 3.86

Now turn to the next molecule.
# value of MIC, Staphylococcus epidermidis, item `CC[C@H](C)[C@H](NC(=O)[C@H](Cc1ccccc1)NC(=O)[C@@H](N)Cc1ccccc1)C(=O)N[C@@H](Cc1ccc(O)cc1)C(=O)N[C@H](C(=O)N[C@@H](Cc1c[nH]c2ccccc12)C(=O)N[C@@H](CCCN=C(N)N)C(=O)N[C@@H](CCCN=C(N)N)C(=O)N[C@@H](CCCN=C(N)N)C(=O)O)C(C)C` = 1
